target: human DHODH (Homo sapiens (Human), UniProt Q02127)
Sequence (Q02127 whole entry): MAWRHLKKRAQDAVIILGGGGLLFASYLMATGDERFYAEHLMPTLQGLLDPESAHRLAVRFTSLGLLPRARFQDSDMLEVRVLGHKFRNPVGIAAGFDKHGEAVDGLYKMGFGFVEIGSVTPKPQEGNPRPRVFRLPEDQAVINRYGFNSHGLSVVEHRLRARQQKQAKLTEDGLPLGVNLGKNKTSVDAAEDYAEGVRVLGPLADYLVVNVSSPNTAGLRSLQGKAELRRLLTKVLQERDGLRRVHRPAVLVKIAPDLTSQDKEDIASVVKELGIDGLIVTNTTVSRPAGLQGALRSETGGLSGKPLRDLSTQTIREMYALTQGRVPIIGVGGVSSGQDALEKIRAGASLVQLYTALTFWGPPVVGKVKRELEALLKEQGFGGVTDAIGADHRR
Outcome Measure: IC50
Please make sure the unit comes right after the number.

human DHODH (Homo sapiens (Human), UniProt Q02127) / IC50 / "O=C(O)c1cc(C2CC2)ccc1Nc1cnc(-c2cc(C(F)(F)F)ccc2F)nc1" : value? 0.021 µM
